# credit: paper PMC7194015

Each item that follows carries a reported Kd.
Target: bacterial chaperone DnaK (Escherichia coli, UniProt P0A6Y8)
Construct: made in house
Sequence (P0A6Y8 whole entry): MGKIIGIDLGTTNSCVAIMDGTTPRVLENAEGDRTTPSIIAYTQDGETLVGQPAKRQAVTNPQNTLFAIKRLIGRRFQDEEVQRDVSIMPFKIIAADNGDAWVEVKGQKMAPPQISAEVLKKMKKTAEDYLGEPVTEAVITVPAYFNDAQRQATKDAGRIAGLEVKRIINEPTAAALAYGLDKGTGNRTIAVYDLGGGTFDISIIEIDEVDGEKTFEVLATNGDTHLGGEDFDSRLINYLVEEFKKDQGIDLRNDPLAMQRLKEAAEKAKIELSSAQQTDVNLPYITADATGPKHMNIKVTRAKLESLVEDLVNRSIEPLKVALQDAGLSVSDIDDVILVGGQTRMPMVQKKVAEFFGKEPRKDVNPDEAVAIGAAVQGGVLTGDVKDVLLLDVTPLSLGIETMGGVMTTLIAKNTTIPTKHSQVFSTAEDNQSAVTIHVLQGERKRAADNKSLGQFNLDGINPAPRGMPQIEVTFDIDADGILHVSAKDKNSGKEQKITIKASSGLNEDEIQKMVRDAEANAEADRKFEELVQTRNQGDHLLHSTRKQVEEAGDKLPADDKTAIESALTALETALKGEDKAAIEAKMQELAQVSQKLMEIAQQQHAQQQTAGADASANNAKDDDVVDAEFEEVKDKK
Assay: FRET assay, DnaK-binding (fluorescence quenching with DnaK-BHQ10)
Conditions: N-terminal 5(6)-carboxyfluorescein, C-terminal amide; quenching assay; non-linear regression (SlideWrite v7.01)
Protocol: Lser-stomoxyn, Lser-PRP2, and Lser-PRP3 were synthesized by PANATecs (Tübingen, Germany) at >95% purity with C-terminal amidation (Table 1). For the quenching assay, Lser-PRP2 and Lser-PRP3 were synthesized with N-terminal 5(6)-carboxyfluorescein and C-terminal amidation. […] Dissociation constants (Kd) were determined using SlideWrite v7.01. […] Kd values were calculated by non-linear regression using the dose–response logistical transition function of the program [y = a 0 + a 1/(1 + x/a 2) a3].
Ends that are not written are not given here.
Note: state the figure and append the unit.

Which value of Kd has been reported for SPFVDRPRRPIQHNGPKPRIITNPPFNPNARPAW-NH2 [Lser-PRP3] in the records?
300 nM

Lab note: next substance to report on.
Which value of Kd has been reported for EWRPHGSIGGSGLRPGRPQTLPPQRPRRPDFNGPRHRF-NH2 [Lser-PRP2] in the records?
140 nM
